# ASSAY TARGET: rat maltase (partially purified alpha-glucosidase from intestinal rat powder)
# EXPERIMENTAL PROTOCOL: Intestinal alpha-glucosidase assay, maltose substrate (Glucose GO Kit)
MEASURED PARAMETER: IC50 (nM)
The figure you give is taken to be in nM; do not add the unit.

As a guide, the following entries are already answered.
O=[N+]([O-])c1cc(CN2CCCO2)ccc1NCc1cccc(CN2C[C@H](O)[C@@H](O)[C@H](O)[C@H]2CO)c1 = 124
OC[C@@H]1[C@@H](O)[C@H](O)[C@@H](O)CN1CCCCCCNc1cc(Cl)cc(CN2CCCO2)c1 = 15
Cc1cc(NCc2cccc(CN3C[C@H](O)[C@@H](O)[C@H](O)[C@H]3CO)n2)cc(-c2ccc[nH]2)c1 = 231

Switching to the query record.
Check rat maltase (partially purified alpha-glucosidase from intestinal rat powder) data and give IC50 for "CN(C)Cc1ccc(NCCCCCCN2C[C@H](O)[C@@H](O)[C@H](O)[C@H]2CO)c(C#N)c1" . 8

* * *

# ASSAY TARGET: recombinant alpha-glucosidase II (murine full-length glucosidase II, alpha and beta subunits, Glu 2) (Mus musculus, UniProt Q8BHN3)
# Construct: made in house; host or cells: HEK-293T cells transduced with BacMam viruses (75% alpha, 25% beta); protein harvested from culture supernatant
# Sequence (O08795 15-521): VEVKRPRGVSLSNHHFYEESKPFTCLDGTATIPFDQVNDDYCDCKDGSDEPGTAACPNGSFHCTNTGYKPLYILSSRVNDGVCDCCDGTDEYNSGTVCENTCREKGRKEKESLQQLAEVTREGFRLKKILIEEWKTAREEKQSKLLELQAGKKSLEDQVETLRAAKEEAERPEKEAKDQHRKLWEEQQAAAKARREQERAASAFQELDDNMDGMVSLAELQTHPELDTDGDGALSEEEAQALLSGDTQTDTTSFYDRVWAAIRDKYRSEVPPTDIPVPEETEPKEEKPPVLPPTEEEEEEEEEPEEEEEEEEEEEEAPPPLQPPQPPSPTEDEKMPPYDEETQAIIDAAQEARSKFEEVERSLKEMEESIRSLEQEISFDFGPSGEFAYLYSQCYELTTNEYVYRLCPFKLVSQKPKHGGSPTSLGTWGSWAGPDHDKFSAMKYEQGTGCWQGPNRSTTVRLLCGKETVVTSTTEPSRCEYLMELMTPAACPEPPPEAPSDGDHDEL
# Sequence (Q8BHN3 33-944): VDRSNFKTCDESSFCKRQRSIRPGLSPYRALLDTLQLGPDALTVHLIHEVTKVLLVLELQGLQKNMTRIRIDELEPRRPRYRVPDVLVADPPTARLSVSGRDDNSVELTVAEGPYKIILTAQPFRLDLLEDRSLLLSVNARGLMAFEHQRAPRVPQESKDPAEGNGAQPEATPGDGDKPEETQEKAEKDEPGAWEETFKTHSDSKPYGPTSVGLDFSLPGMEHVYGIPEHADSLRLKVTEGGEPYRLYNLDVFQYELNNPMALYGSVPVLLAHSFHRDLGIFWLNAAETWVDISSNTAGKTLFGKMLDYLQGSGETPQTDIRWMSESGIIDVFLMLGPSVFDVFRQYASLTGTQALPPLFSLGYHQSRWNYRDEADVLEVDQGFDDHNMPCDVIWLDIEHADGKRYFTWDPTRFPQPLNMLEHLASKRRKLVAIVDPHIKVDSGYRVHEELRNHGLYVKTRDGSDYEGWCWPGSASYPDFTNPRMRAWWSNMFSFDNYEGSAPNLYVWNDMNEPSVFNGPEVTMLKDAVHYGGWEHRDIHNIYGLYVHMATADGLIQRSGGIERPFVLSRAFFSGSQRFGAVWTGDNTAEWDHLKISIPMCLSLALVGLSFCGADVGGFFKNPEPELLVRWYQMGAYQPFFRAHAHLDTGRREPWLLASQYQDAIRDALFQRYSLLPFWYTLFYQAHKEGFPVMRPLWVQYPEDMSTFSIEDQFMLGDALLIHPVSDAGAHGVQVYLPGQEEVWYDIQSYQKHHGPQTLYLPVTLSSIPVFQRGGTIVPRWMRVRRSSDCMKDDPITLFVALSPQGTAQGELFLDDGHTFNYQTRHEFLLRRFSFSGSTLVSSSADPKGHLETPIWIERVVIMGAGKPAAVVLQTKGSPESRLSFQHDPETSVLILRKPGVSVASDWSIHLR
# EXPERIMENTAL PROTOCOL: Alpha-glucosidase II assay (4-methylumbelliferyl-alpha-D-pyranoside substrate, fluorescence)
# Type: biochemical
# PROTOCOL CONDITIONS: Glucosidase 2; read-out: Glu2 IC50
MEASURED PARAMETER: pIC50
The value called pIC50 is obtained by taking minus log10 of the concentration in mol/L.

OC[C@@H]1[C@@H](O)[C@H](O)[C@@H](O)CN1CCCCCCNc1cc(-c2cccnn2)cc(C2CC2)c1 [Compound 1008] = 7.92

Write down pIC50 measured for item O=[N+]([O-])c1cc(-c2ncco2)ccc1NCCc1ccc(CCN2C[C@H](O)[C@@H](O)[C@H](O)[C@H]2CO)cc1 [Compound 1112] 7.00

For CC(C)c1cc(CCNc2ccc(N=[N+]=[N-])cc2[N+](=O)[O-])cc(CCN2C[C@H](O)[C@@H](O)[C@H](O)[C@H]2CO)c1 [Compound 1077] , write its pIC50. 6.69

* * *

# ASSAY TARGET: recombinant alpha-glucosidase I (human full-length glucosidase I, Glu 1) (Homo sapiens)
# Construct: 6-His (C); made in house; host or cells: HEK-293T cells transduced with BacMam virus (virus raised in Sf9)
# EXPERIMENTAL PROTOCOL: Alpha-glucosidase I assay (Amplex Red glucose detection, synthetic trisaccharide substrate)
# Assay type: biochemical
# PROTOCOL CONDITIONS: Glucosidase 1; read-out: Glu 1 IC50
Consider the cut-off 200 nM. If the recorded IC50 is strictly smaller, the label is 1.0; if not, the label is 0.0.

Examples from the recorded data:
COc1ccc(-c2ccc(CCCN3C[C@H](O)[C@@H](O)[C@H](O)[C@H]3CO)cc2)cc1 [Compound 1305] = 0.0
COCCc1ccc(CCCN2C[C@H](O)[C@@H](O)[C@H](O)[C@H]2CO)cc1 [Compound 1308] = 0.0
N#Cc1cc(NCc2cccc(CN3C[C@H](O)[C@@H](O)[C@H](O)[C@H]3CO)c2)cc(-c2ncccn2)c1 [Compound 1047] = 1.0
COc1cc(NCCCCCCN2C[C@H](O)[C@@H](O)[C@H](O)[C@H]2CO)cc(-c2ncco2)c1 [Compound 1216] = 1.0

Report whether reported IC50 is lower than 200 nM (strictly) for [N-]=[N+]=Nc1ccc(NCCC(O)C(O)CCN2C[C@H](O)[C@@H](O)[C@H](O)[C@H]2CO)c([N+](=O)[O-])c1 (stereo partly shown) [Compound 1270] 0.0

API: query returns whether the compound falls strictly under 200 nM in IC50. Query: OC[C@@H]1[C@@H](O)[C@H](O)[C@@H](O)CN1CCCCCCNc1ccc(-c2ncco2)cc1Cl [Compound 1203] 1.0

API: query returns whether the compound falls strictly under 200 nM in IC50. Query: COc1ccc(-c2ccc(CN3C[C@H](O)[C@@H](O)[C@H](O)[C@H]3CO)cc2)cc1 [Compound 1306] 0.0

* * *

# ASSAY TARGET: recombinant alpha-glucosidase I (human full-length glucosidase I, Glu 1) (Homo sapiens)
# Construct: 6-His (C); made in house; host or cells: HEK-293T cells transduced with BacMam virus (virus raised in Sf9)
# Sequence (Q13724 1-837): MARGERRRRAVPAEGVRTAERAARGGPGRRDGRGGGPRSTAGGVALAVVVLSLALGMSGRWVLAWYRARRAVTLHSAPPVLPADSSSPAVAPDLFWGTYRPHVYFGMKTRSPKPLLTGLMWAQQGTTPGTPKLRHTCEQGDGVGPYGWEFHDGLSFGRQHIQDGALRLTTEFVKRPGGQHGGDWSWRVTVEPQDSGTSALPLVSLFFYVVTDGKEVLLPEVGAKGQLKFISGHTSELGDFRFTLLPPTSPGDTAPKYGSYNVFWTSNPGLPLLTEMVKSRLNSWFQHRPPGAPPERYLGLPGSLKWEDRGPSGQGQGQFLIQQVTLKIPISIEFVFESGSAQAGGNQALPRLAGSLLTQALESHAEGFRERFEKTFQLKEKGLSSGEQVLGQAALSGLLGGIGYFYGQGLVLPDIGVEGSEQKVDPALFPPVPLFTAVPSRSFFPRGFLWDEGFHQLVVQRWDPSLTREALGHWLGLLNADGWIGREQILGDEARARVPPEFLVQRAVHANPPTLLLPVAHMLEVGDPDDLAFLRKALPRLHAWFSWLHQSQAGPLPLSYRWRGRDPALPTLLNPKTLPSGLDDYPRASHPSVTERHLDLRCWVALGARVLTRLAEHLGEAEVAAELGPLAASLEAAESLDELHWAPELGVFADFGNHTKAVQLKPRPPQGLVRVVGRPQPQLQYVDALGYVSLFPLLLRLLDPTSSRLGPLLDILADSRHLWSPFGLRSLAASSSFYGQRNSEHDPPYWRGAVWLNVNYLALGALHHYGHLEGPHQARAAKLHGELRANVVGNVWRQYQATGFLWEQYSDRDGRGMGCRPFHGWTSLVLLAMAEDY
# EXPERIMENTAL PROTOCOL: Alpha-glucosidase I assay (Amplex Red glucose detection, synthetic trisaccharide substrate)
# Type: biochemical
# PROTOCOL CONDITIONS: Glucosidase 1; read-out: Glu 1 IC50
MEASURED PARAMETER: log10 of IC50 (log10 of the value in nM)
The base-10 logarithm of IC50, taken with IC50 in nM, is what appears here.

[N-]=[N+]=Nc1ccc(NCCc2cc(CCN3C[C@H](O)[C@@H](O)[C@H](O)[C@H]3CO)cc(C3CCCCC3)c2)c([N+](=O)[O-])c1 = 2.00
[N-]=[N+]=Nc1ccc(NCCc2ccccc2CCN2C[C@H](O)[C@@H](O)[C@H](O)[C@H]2CO)c([N+](=O)[O-])c1 = 3.39
N#Cc1cc(Br)cc(NCc2ccc(CN3C[C@H](O)[C@@H](O)[C@H](O)[C@H]3CO)cc2)c1 = 0.85

Write down log10 of IC50 measured for item "Cc1cc(NCc2cnc(CN3C[C@H](O)[C@@H](O)[C@H](O)[C@H]3CO)cn2)cc(-c2ccc[nH]2)c1" 3.15

Please look at this molecule and report its log10 of IC50: "[N-]=[N+]=Nc1ccc(NCc2ccc(Cc3ccc(CN4C[C@H](O)[C@@H](O)[C@H](O)[C@H]4CO)cc3)cc2)c([N+](=O)[O-])c1" 1.20

Output measured log10 of IC50 for this item: "OC[C@@H]1[C@@H](O)[C@H](O)[C@@H](O)CN1Cc1ccc(CNc2ccc(-c3cccnn3)cc2)cc1" 1.08

* * *

# ASSAY TARGET: recombinant human GAA (acid alpha-glucosidase) (Homo sapiens)
# EXPERIMENTAL PROTOCOL: Acid alpha-glucosidase (GAA) assay (4-methylumbelliferyl-alpha-D-pyranoside substrate, fluorescence)
pIC50: −log10 of the molar value.
Rule: pIC50 of 7 or more gives Yes; anything lower gives No.

O=[N+]([O-])c1cc(-c2ncc[nH]2)ccc1NCCc1ccc(CCN2C[C@H](O)[C@@H](O)[C@H](O)[C@H]2CO)cc1 = No
[N-]=[N+]=Nc1ccc(N2CCN(CCN3C[C@H](O)[C@@H](O)[C@H](O)[C@H]3CO)CC2)c([N+](=O)[O-])c1 = No
N#Cc1cc(NCc2ccc(CN3C[C@H](O)[C@@H](O)[C@H](O)[C@H]3CO)cc2)cc(-c2cccnn2)c1 = Yes
CS(=O)(=O)c1cc(NCc2cccc(CN3C[C@H](O)[C@@H](O)[C@H](O)[C@H]3CO)c2)cc(N2CCOCC2)c1 = No
O=[N+]([O-])c1cc(C2=COCCO2)ccc1NCc1ccc(CN2C[C@H](O)[C@@H](O)[C@H](O)[C@H]2CO)cc1 = Yes
O=S(=O)(Nc1cc(NCCCCCCN2C[C@H](O)[C@@H](O)[C@H](O)[C@H]2CO)cc(-c2ncccn2)c1)C1CC1 = Yes
N#Cc1cc(NCc2cccc(CN3C[C@H](O)[C@@H](O)[C@H](O)[C@H]3CO)c2)cc(-c2ncccn2)c1 = No
O=C(O)c1cc(Cl)cc(NCCc2ccc(CCN3C[C@H](O)[C@@H](O)[C@H](O)[C@H]3CO)cc2)c1 = No
Cc1cc(NCc2cccc(CN3C[C@H](O)[C@@H](O)[C@H](O)[C@H]3CO)c2)cc(-c2ncccn2)c1 = No
CN(C)Cc1ccc(NCCCCCCN2C[C@H](O)[C@@H](O)[C@H](O)[C@H]2CO)c(C(=O)O)c1 = No

Answer whether pIC50 of "COCCc1ccc(CCCCCN2C[C@H](O)[C@@H](O)[C@H](O)[C@H]2CO)cc1" is greater than or equal to 7. No

Exam item: decide whether the reported pIC50 for "N#Cc1cc(NCCCCCCN2C[C@H](O)[C@@H](O)[C@H](O)[C@H]2CO)cc(-c2ncccn2)c1" is at least 7. Yes
